read-out: Interleukin-8 (IL8), CXCL8 (gene 3576); experiment: BSK_SAg_IL8: BioMAP Diversity Plus: SAg Assay for Interleukin-8 (IL8) Biomarker Activity (AID 2283094); settings: primary human HUVEC with PBMC; actives raise or lower the signal
Activity calls are given as the source filed them. How the source made its calls: active means hit-call score of the fitted dose curve at least 0.9, where 1 is the maximum; inactive means score below 0.9.
In this exercise, the only acceptable responses are active, inactive

molecule	discrete-label
CC(C)CCCC(C)CCO (stereo not drawn)	inactive
CCN(CC)c1ccc2c(c1)Oc1cc(N(CC)CC)ccc1C21OC(=O)c2ccccc21	active

Could you now look at the following molecule, please?
Query string: Returns: the outcome recorded for Cc1cc(O)c(C(C)(C)C)cc1C(C)(C)C in this assay.
Result string: active
